# measured-on: C-C chemokine receptor type 5 (Homo sapiens)
# test: Inhibitory concentration for displacement of [125I]-MIP-1 alpha from recombinant human CC chemokine receptor 5 (CCR5) expressed in CHO cell
metric: IC50 (nM)

chemical-structure	measured-on	result-units	IC50
CCn1nc(Cc2ccc(C(F)(F)F)cc2)cc1C1CCN(C[C@H]2CN([C@@H](C(=O)O)C3CCCCC3)C[C@@H]2c2cccc(F)c2)CC1	C-C chemokine receptor type 5 (Homo sapiens)	nM	1.5
CCCOc1ccc(Cc2cc(C3CCN(C[C@H]4CN([C@@H](C(=O)O)[C@H](C)CC)C[C@@H]4c4cccc(F)c4)CC3)n(CC)n2)cc1	C-C chemokine receptor type 5 (Homo sapiens)	nM	1.2
CC[C@@H](C)[C@H](C(=O)O)N1C[C@H](CN2CCC(c3cc(Cc4ccc(OC5CC5)cc4)nn3CC)CC2)[C@@H](c2cccc(F)c2)C1	C-C chemokine receptor type 5 (Homo sapiens)	nM	0.3
CCn1nc(Cc2ccc(C(C)C)cc2)cc1C1CCN(C[C@H]2CN([C@@H](C(=O)O)C(C)(C)C)C[C@@H]2c2cccc(F)c2)CC1	C-C chemokine receptor type 5 (Homo sapiens)	nM	0.6
CCOc1ccc(Cc2cc(C3CCN(C[C@H]4CN([C@@H](C(=O)O)C5CCCCC5)C[C@@H]4c4cccc(F)c4)CC3)n(CC)n2)cc1	C-C chemokine receptor type 5 (Homo sapiens)	nM	1
CCn1nc(Cc2cccc(C#N)c2)cc1C1CCN(C[C@H]2CN([C@@H](C(=O)O)C(C)(C)C)C[C@@H]2c2cccc(F)c2)CC1	C-C chemokine receptor type 5 (Homo sapiens)	nM	1

1 = CC[C@@H](C)[C@H](C(=O)O)N1C[C@H](CN2CCC(c3cc(Cc4ccc5ccccc5c4)nn3CC)CC2)[C@@H](c2cccc(F)c2)C1
2 = CCOc1ccc(Cc2cc(C3CCN(C[C@H]4CN([C@@H](C(=O)O)C(C)C)C[C@@H]4c4cccc(F)c4)CC3)n(CC)n2)cc1F
3 = CC[C@H](C)[C@H](C(=O)O)N1C[C@H](CN2CCC(c3cc(Cc4cccc(C#N)c4)nn3CC)CC2)[C@@H](c2cccc(F)c2)C1
4 = CCn1nc(Cc2cc(F)cc(F)c2)cc1C1CCN(C[C@H]2CN([C@@H](C(=O)O)C(C)C)C[C@@H]2c2cccc(F)c2)CC1
5 = CC[C@@H](C)[C@H](C(=O)O)N1C[C@H](CN2CCC(c3cc(Cc4cc(C(F)(F)F)cc(C(F)(F)F)c4)nn3CC)CC2)[C@@H](c2cccc(F)c2)C1
Place the items in sequence of falling IC50. Field: ranking. Enter the labels in the order requested.
4, 5, 3, 2, 1

----------
# measured-on: C-C chemokine receptor type 5 (Homo sapiens, UniProt P51681)
# Sequence (P51681 whole entry): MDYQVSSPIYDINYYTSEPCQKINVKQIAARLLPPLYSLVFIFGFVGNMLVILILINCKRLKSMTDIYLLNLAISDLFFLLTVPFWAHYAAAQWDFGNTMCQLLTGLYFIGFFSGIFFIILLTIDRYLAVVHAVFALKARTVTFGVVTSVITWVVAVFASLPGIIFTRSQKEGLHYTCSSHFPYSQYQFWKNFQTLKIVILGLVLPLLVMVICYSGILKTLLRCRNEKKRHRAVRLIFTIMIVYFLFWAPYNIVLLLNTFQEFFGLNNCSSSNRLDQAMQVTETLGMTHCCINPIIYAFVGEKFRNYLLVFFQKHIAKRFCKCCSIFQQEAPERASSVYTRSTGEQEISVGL
# test: Inhibitory concentration for displacement of [125I]-MIP-1 alpha from recombinant human CC chemokine receptor 5 (CCR5) expressed in CHO cell
metric: IC50 (nM)

a = CC[C@H](C)[C@H](C(=O)O)N1C[C@H](CN2CCC(c3cc(Cc4cccc5ccccc45)nn3CC)CC2)[C@@H](c2cccc(F)c2)C1
b = CCn1nc(Cc2cccnc2)cc1C1CCN(C[C@H]2CN([C@@H](C(=O)O)C(C)C)C[C@@H]2c2cccc(F)c2)CC1
Which value of IC50 is smaller, the one for a or the one for b ? // return label of chosen record
a
